# target.or.system: UniProt P08254
# Sequence (P08254 100-477, species assumed): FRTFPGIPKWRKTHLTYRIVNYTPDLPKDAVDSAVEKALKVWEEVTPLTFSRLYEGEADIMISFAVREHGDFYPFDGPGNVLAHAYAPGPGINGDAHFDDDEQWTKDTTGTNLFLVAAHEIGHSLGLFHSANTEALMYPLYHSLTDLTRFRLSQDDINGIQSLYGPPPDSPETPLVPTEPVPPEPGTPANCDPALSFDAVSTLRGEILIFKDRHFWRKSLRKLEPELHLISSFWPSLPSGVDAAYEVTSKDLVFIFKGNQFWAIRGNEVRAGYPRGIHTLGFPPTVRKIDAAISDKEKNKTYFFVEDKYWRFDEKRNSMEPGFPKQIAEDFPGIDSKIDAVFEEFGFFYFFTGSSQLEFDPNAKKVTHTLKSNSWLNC
# method.summary: Fluorimetric enzyme inhibition assay with peptide substrate (Example A), stromelysin-1
# Type: biochemical
# condition.parameters: Ki (app) assumed to approximate true Ki; substrate approx. 20 μm, pH 7.5, overnight
# note: exactly 30 nM is not below, so it is -1; use 1 for Ki strictly under it

{"structure": "O=C(C[C@@H](CCCc1ccncc1)C(=O)N[C@@H](CC1CCCCC1)C(=O)NCCc1ccccc1)NO", "target.or.system": "UniProt P08254", "group": 1}
{"structure": "NS(=O)(=O)c1ccc(CCNC(=O)[C@H](CC2CCCCC2)NC(=O)[C@H](CCCc2ccncc2)CC(=O)NO)cc1", "target.or.system": "UniProt P08254", "group": 1}
{"structure": "C[n+]1ccc(CCC[C@H](CC(=O)NO)C(=O)N[C@@H](CC2CCCCC2)C(=O)NCCc2ccccc2)cc1", "target.or.system": "UniProt P08254", "group": -1}

For the next question, use this molecule.
Lab log: compare recorded Ki with 30 nM; is it strictly lower for `O=C(O)C[C@@H](CCOc1ccccc1)C(=O)N[C@@H](CC1CCCCC1)C(=O)NCCc1ccccc1` ?
-1

====

# target.or.system: Collagenase
# method.summary: Fluorimetric enzyme inhibition assay with peptide substrate (Example A), collagenase
# Format: biochemical
# condition.parameters: Ki (app) assumed to approximate true Ki; substrate approx. 20 μm, pH 7.5, overnight
Parameter Ki: see the listing below.
Could you give me the number in nM? Just the number is fine.

Below are worked cases with known answers.
{"compound": "NS(=O)(=O)c1ccc(CCNC(=O)[C@H](CC2CCCCC2)NC(=O)[C@H](CCCc2ccncc2)CC(=O)NO)cc1 [Example 8]", "Ki [nM]": 215}
{"compound": "O=C(C[C@@H](CCOc1ccccc1)C(=O)N[C@@H](CC1CCCCC1)C(=O)NCCc1ccccc1)NO [Example 3]", "Ki [nM]": 478}
{"compound": "O=C(O)C[C@@H](CCOc1ccccc1)C(=O)N[C@@H](CC1CCCCC1)C(=O)NCCc1ccccc1 [Example 2]", "Ki [nM]": 48800}
{"compound": "C[n+]1ccc(CCC[C@H](CC(=O)NO)C(=O)N[C@@H](CC2CCCCC2)C(=O)NCCc2ccccc2)cc1 [Example 6]", "Ki [nM]": 22000}

Now let's try a different one.
# input compound: O=C(C[C@@H](CCCc1ccncc1)C(=O)N[C@@H](CC1CCCCC1)C(=O)NCCc1ccccc1)NO [Example 5] ; wanted: its Ki
186

====

# target.or.system: Gelatinase -72 KD (Homo sapiens, UniProt P08253)
# Sequence (P08253 110-660): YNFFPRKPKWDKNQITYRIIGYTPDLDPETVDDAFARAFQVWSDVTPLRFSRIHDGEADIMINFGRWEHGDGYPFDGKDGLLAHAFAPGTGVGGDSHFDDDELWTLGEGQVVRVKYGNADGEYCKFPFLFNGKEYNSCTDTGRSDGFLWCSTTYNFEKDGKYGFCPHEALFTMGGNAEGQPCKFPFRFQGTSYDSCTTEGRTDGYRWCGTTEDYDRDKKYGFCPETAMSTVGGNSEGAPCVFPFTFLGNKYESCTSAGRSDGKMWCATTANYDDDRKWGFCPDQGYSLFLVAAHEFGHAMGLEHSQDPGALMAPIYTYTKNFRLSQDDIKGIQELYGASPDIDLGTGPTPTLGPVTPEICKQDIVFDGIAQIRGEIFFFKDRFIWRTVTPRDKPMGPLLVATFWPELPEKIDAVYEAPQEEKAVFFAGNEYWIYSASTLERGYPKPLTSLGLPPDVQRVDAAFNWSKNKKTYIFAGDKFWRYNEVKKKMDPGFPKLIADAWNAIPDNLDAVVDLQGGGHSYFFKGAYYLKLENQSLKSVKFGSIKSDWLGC
# method.summary: Fluorimetric enzyme inhibition assay with peptide substrate (Example A), gelatinase
# Assay type: biochemical
# condition.parameters: true Ki from plot of Ki (app) vs. [S], y-axis intercept; pH 7.5, overnight
value.type: log10 of Ki (log10 of the value in nM)
The figures below represent log10 of Ki, where Ki is stated in nM.

# count of solved cases: 3
{"structure": "O=C(C[C@@H](CCCc1ccncc1)C(=O)N[C@@H](CC1CCCCC1)C(=O)NCCc1ccccc1)NO", "target.or.system": "Gelatinase -72 KD (Homo sapiens, UniProt P08253)", "value": -1.46}
{"structure": "O=C(C[C@@H](CCOc1ccccc1)C(=O)N[C@@H](CC1CCCCC1)C(=O)NCCc1ccccc1)NO", "target.or.system": "Gelatinase -72 KD (Homo sapiens, UniProt P08253)", "value": -0.56}
{"structure": "NS(=O)(=O)c1ccc(CCNC(=O)[C@H](CC2CCCCC2)NC(=O)[C@H](CCCc2ccncc2)CC(=O)NO)cc1", "target.or.system": "Gelatinase -72 KD (Homo sapiens, UniProt P08253)", "value": -1.23}

Look up log10 of Ki with Gelatinase -72 KD (Homo sapiens, UniProt P08253) for this molecule: `O=C(O)C[C@@H](CCOc1ccccc1)C(=O)N[C@@H](CC1CCCCC1)C(=O)NCCc1ccccc1`
1.35

API: value(readout=log10 of Ki, system=Gelatinase -72 KD (Homo sapiens, UniProt P08253)) for record `C[n+]1ccc(CCC[C@H](CC(=O)NO)C(=O)N[C@@H](CC2CCCCC2)C(=O)NCCc2ccccc2)cc1`
0.93

Hello, the source for this data is patent US5569665A, in case you need it.
